Below, each of the molecules is paired with its reported melting point value.

                                   molecule       obsvalue
0  Cc1cc(C)nc(SCc2nccc(SCCCSc3ccc4ncc([N+](=O)[O-])n4n3)c2C)n1  145 to 147 °C

Problem: Bench note: what melting point did "N#CCc1ccc(OCCCN2CCN(C34CC5CC(CC(C5)C3)C4)CC2)cc1" show?
Result: 136 to 138 °C

---

# melting point per entry

Some solved entries appear below for comparison.
                                   molecule       obsvalue
0    OCCCc1cccc(OCc2coc(/C=C/c3ccccc3)n2)c1    57 to 58 °C
1  CS(=O)c1nnc(Sc2cc(C(C)(C)C)c(O)c(C(C)(C)C)c2)s1 (configuration not stated)  162 to 164 °C

Problem: What does the record list as melting point for C=CCN(CC=C)c1ccc(C(C)N(O)C(N)=O)cc1 (configuration not stated) ?
Result: 112 to 114 °C

Problem: Fill in the blank: the reported melting point of "CCOc1ccc(-c2nc(-c3ccc(N4CCOCC4)c([N+](=O)[O-])c3)cs2)cc1OCC" is ____.
Result: 119 to 120 °C

Problem: Query: melting point; subject: "Cc1[nH]c(=O)[nH]c(=O)c1[N+](=O)[O-]"
Result: 281 °C

Problem: Need melting point, item "N#Cc1ccc(NC(=O)C(F)(F)C(F)(F)C(F)(F)F)cc1"
Result: 116 to 118 °C

Problem: For the molecule "c1ccc(-c2ccc(-c3cccs3)s2)cc1" , what melting point is on record?
Result: 116 to 118 °C

Problem: Field request: melting point | item: COc1ccc(C(=O)C(C(=O)Nc2cc(N)ccc2Cl)N2C(=O)c3ccccc3C2=O)cc1 (configuration not stated)
Result: 105 to 107 °C

Problem: Form field: reported melting point of O=C(O)CC1C=CC=CC1=NOC(=O)C(Cl)Cl (configuration not stated)
Result: 115 °C

Problem: melting point lookup needed for "COC(=O)/C(C#N)=C/c1cc(OC)c(OCCCl)cc1[N+](=O)[O-]" , thanks.
Result: 157 to 160 °C

Problem: Value lookup for melting point; key = "CCCOc1c(-c2ccccc2)nn(C)c1-c1ccccc1"
Result: 56 to 57 °C

Problem: Need melting point, item CCOc1c(C)c(C)c2c(c1C)CCC(C)(COc1ccc(N)cc1)O2 (configuration not stated)
Result: 121 to 123 °C

Problem: Need melting point, item Cc1cccc(C(O)c2ccc(N)cc2)n1 (configuration not stated)
Result: 165 to 166 °C

Problem: Given CC(C(=O)O)c1ccc(N=c2sccn2C)cc1 (configuration not stated) , state its recorded melting point.
Result: 130 to 132 °C

Problem: Quick check: melting point of "O=C(Nc1cc([N+](=O)[O-])c[nH]c1=O)c1ccccc1" ?
Result: 267 to 268 °C

Problem: Look at this molecule and give its reported melting point. CC(=O)Oc1c(C)ccc2c1NC(O)C1CCCN1C2=O (configuration not stated)
Result: 142 to 145 °C

Problem: Suppose we examine the molecule "COc1cc2c(cc1Br)C=C(C)N(C(=O)C1CC1)N=C2c1ccc(N)cc1" ; what melting point value has been reported?
Result: 224 to 226 °C

Problem: If you can, please state the reported melting point value of "NC(=S)NN=CC=Cc1ccccc1" .
Result: 137 to 139 °C

Problem: Returns the measured melting point for the input molecule. Input: "CN(C)CCN1C(=O)c2cscc2N(C)c2ccccc21"
Result: 147 to 149 °C

Problem: Param item = "COc1cccc2c(=O)cc(-c3ccccc3SCc3ccccc3)[nH]c12" ; retrieve measured melting point.
Result: 139 to 140 °C

Problem: Which measured melting point value corresponds to "COc1ccc2c(=O)c(N)coc2c1" ?
Result: 143 to 146 °C

Problem: // returns reported melting point for input "FC(F)(F)c1ccc(COc2ccnc(CCl)c2)cc1"
Result: 133 to 135 °C
